The molecules listed here are annotated with their fold change.
- experiment.description: sensitizers of A549 cells to miR-34 induction, primary screen, imaging, A549 dox-inducible miR-34, nuclei and caspase counts (AID 1347080); note: test concentration not given here
- experimental.setup: A549 miR-34 inducible, Hoechst nuclei count, 48 h; stronger effect = lower value; cell number ratio, induced over uninduced
Bridge positions count the residues as written; N and C are the ends. Square brackets hold non-standard residues; d marks the D form. Peptide text beside a SMILES is read from it. * marks the point of attachment. Heptanoyl(6-Me) = CC(C)CCCCC(=O)*; Orn = NCCC[CH](N)C(=O)O; Dab = NCC[CH](N)C(=O)O

molecule	fold change
Nc1ccn(C2O[C@H](CO)[C@@H](O)[C@@H]2O)c(=O)n1 (stereo not given in full)	0.952
CCN1CCN(C(=O)NC(C(=O)NC2C(=O)N3C(C(=O)O)=C(CSc4nnnn4C)CSC23)c2ccc(O)cc2)C(=O)C1=O (stereo not given)	0.914
CC(C)CC1NC(=O)C(CCCN)NC(=O)C(C(C)C)NC(=O)C(Cc2ccc(O)cc2)NC(=O)C(CCC(=O)O)NC(=O)C(CC(=O)O)NC(=O)C(Cc2ccccc2)NC(=O)C(Cc2ccccc2)NC(=O)C2CCCN2C(=O)C(Cc2ccccc2)NC1=O (stereo not given) (cyclo(DEYV[Orn]LFPFF); configuration not given here)	1.12
CC(C)[N+]1(C)C2CC[C@@H]1CC(OC(=O)C(CO)c1ccccc1)C2 (stereo not given in full)	0.876
CCC(C)C1NC(=O)C(CCN)NC(=O)C(NC(=O)C(CCN)NC(=O)C(NC(=O)C(CCN)NC(=O)CCCCC(C)C)C(C)O)CCNC(=O)C(C(C)O)NC(=O)C(CCN)NC(=O)C(CCN)NC(=O)C(C(C)CC)NC1=O (stereo not given) ({Heptanoyl(6-Me)}-[Dab]T[Dab][Dab][Dab]II[Dab][Dab]T; lactam 4-C; configuration not given here)	0.901
